These entries and their values trace back to patent US7943639B2.

- Measured On: human 5-HT6 receptor (Homo sapiens)
- Construct: expressed in transfected cells; host or cells: HEK-293 cells under G-418 selection; membranes were prepared from them
- Sequence (P50406 whole entry): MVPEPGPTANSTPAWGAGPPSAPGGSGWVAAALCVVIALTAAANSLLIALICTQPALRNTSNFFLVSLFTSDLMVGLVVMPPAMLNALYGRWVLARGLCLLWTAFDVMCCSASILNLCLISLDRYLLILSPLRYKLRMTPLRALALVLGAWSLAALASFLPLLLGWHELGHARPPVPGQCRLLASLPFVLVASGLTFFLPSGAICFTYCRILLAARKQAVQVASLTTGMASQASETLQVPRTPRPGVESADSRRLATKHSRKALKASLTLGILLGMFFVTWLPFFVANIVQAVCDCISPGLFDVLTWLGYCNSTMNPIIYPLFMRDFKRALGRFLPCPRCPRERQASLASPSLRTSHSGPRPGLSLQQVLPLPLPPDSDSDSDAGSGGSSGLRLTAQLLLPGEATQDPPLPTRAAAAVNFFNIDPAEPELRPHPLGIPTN
- Assay Info: 5-HT6 binding assay ([3H]-LSD, SPA, membranes of transfected HEK293 cells)
- Stated Conditions: In vitro binding at the human 5-HT6 receptor, [3H]-LSD as labeled ligand; read-out: Ki (nM) human 5-HT6
Structures can show the parent of a compound that is named as a salt.
Measured Attribute: Ki (nM)

{"Compound": "Cc1ccc(C)c(S(=O)(=O)c2ccc3ccnc(N4CCNCC4)c3c2)c1 [Example 20, hydrochloride]", "Measured Attribute": "Ki", "Unit": "nM", "Reported Result": 10.5}

(a) Cl.O=S(=O)(c1ccccc1)c1ccc2nccc(N3CCNCC3)c2c1 [Example 1, hydrochloride]
(b) CC(C)(C)c1ccc(S(=O)(=O)c2ccc3nccc(N4CCNCC4)c3c2)cc1.Cl [Example 11, hydrochloride]
(c) CN1CCN(c2nccc3sc(S(=O)(=O)Nc4ccccc4)cc23)CC1 [Example 43, hydrochloride]
Task: Please put the entries in order of rising Ki. To answer, write out the labels according to the requested order.
Result: c, b, a
